# TGI per record follows
- Test system: HS 578T breast
- protocol.description: NCI tumour cell line growth inhibition, 48 h

compound	TGI
CCCC(=O)N(C(=O)CCC)C1=C(Cl)C(=O)c2ccccc2C1=O	79.7 µM
CCOC(=O)c1nc2cc(C(F)(F)F)ccc2nc1Oc1ccc(OC)cc1	> 100 µM
O=C1CSC(c2ccccc2O)N1c1ccc(-c2ccc(-n3c(-c4ccccc4)nc4ccccc4c3=O)cc2)cc1 (stereo not drawn)	> 100 µM

* * *

- System: NCI-H522 lung
- protocol.description: NCI tumour cell line growth inhibition, 48 h; in the data active = GI50 below about 0.43 µM; inactive = the rest
Outcomes: yes (active), no (inactive)

molecule	tested.target	class.label
CCOC(=O)/C=C/C1=C(c2ccsc2)c2ccc(OC)cc2CC1	NCI-H522 lung	yes
O=C1NC(=O)/C(=C/c2c(Cl)nc3sccn23)S1	NCI-H522 lung	no
COc1cc(CN[C@H]2CCc3cc(OC)c(OC)c(OC)c3-c3ccc(SC)c(=O)cc32)cc(OC)c1	NCI-H522 lung	yes
O=C1c2ccccc2C(=O)c2c1c(=O)c(=O)c1ccccc1c(=O)n2Cc1ccccc1	NCI-H522 lung	no
COC(=O)C1=C(OC(=O)c2ccccc2)C(C(=O)OC)[C@]2(O)[C@@H](C(=O)OC)C1CC(c1ccccc1OC)[C@@H]2C(=O)OC (stereo not given in full)	NCI-H522 lung	no

* * *

# TGI values compiled below
- Tested on: OVCAR-3 ovarian
- protocol.description: NCI tumour cell line growth inhibition, 48 h

compound	comparison.operator	TGI [µM]
c1cc(-c2ccc(-c3ccc(C4=NCCCN4)cc3)o2)ccc1C1=NCCCN1	>	100
CC1=NCC[N+]1(CCc1ccccc1)Cc1ccccc1 (configuration not stated)	=	91
CCOC(=O)/C(=C\c1ccccc1)C(=O)CCN1CCOCC1	=	18.6
Cc1c(NC(=O)/C(=N/NC(=S)N=N)C2C(=O)CC(C)(C)CC2=O)c(O)c2ccccc2c1O	=	6.5
O=Cc1c(O)ccc2ccc(O)c(-c3c(O)ccc4ccc(O)cc34)c12	>	100
CCCCc1c2c(nc3c1CCCC3=O)C(=O)CCC2	>	100
COc1cc(Nc2nc3ccccc3n3cccc23)cc(OC)c1OC	>	100

* * *

Listed below: TGI values for each entry.
- System: SK-MEL-2 melanoma
- protocol.description: NCI tumour cell line growth inhibition, 48 h

compound	TGI
O=C(ON=c1c2ccccc2ccc2ccccc12)c1ccccc1	> 58 µM
CCN(CC)CCn1ncc2c3c(=O)c4cccnc4n(CCN(CC)CC)c3ccc21	> 10 µM
COc1ccc(/C=C/c2nsc(/C=C/c3ccc(OC)cc3)n2)cc1	> 100 µM
CN(C)c1[se]nc2c1c(=O)n(C)c(=O)n2C	> 100 µM
CCn1c2ccccc2c2cc(/C=C(/C#N)C(N)=S)ccc21	> 100 µM
CCOC(=O)/C=C/C1=C(c2ccsc2)c2ccc(OC)cc2CC1	> 24.7 µM
CC1OC(OC2C(O)C(OCCc3ccc(O)c(O)c3)OC(CO)C2OC(=O)/C=C/c2ccc(O)c(O)c2)C(O)C(O)C1OC1OCC(O)(CO)C1O (stereo not drawn)	> 100 µM
CCCc1nc(N)nc(C(=O)Nc2cccc(C(F)(F)F)c2)c1CC	> 100 µM

* * *

Reported TGI values follow for various compounds
- Tested on: SK-OV-3 ovarian
- protocol.description: NCI tumour cell line growth inhibition, 48 h
*1 amine or outer side, *2 acyl side, *3 side chain or, on linkers, in order; H or OH if unused. Where a SMILES comes first, the peptide text is derived from it. [ ]: non-standard residue; d: D form. ξ: configuration not given here. Ile(3ξ) = CCC(C)[C@H](N)C(=O)O; X33 = C=CCC(O[*:1])C(=O)[*:2]; NMeV = CN[C@H](C(=O)O)C(C)C; NMeA = CN[C@@H](C)C(=O)O; βAla = NCCC(=O)O
measurement.kind: TGI

compound	tested.target	test.result
C=CCn1c(SCC(=O)Nc2ccc(C(=O)/C=C/c3cc(OC)c(OC)c(OC)c3)cc2)nnc1-c1ccc(Cl)cc1	SK-OV-3 ovarian	58.3 µM
COC(=O)C1Cc2c([nH]c3ccccc23)C(C2CCCCC2)N1 (stereo not drawn)	SK-OV-3 ovarian	> 100 µM
O=C1NN=C2C=C(c3ccc(Cl)cc3)CC(c3cccc(Br)c3)C12 (stereo not drawn)	SK-OV-3 ovarian	> 100 µM
O=[N+]([O-])c1ccc(C2N3CCCCC3[C@H]3CCCCN23)cc1 (stereo partly drawn)	SK-OV-3 ovarian	> 100 µM
CC(=O)OC1CC2CC(=O)CC1N2C (stereo not drawn)	SK-OV-3 ovarian	> 100 µM
C=CCC1OC(=O)CCNC(=O)[C@H](C)N(C)C(=O)[C@H](C(C)C)N(C)C(=O)[C@H](C(C)CC)NC(=O)[C@@H]2CCCN2C1=O (stereo partly drawn) (cyclo([Ile(3ξ)][NMeV][NMeA][βAla][X33]P))	SK-OV-3 ovarian	> 100 µM
N#CC[C@@H](O)COc1ccccc1	SK-OV-3 ovarian	> 100 µM
NS(=O)(=O)c1ccc(N=Cc2c(O)[nH]c3ccc4ncsc4c23)cc1	SK-OV-3 ovarian	> 25 µM

* * *

- Tested on: NCI-H460 lung
Possible outcomes: active, inactive

molecule	tested.target	class.label
CC1OC(OC2C(O)C(OCCc3ccc(O)c(O)c3)OC(CO)C2OC(=O)/C=C/c2ccc(O)c(O)c2)C(O)C(O)C1OC1OCC(O)(CO)C1O (stereo not drawn)	NCI-H460 lung	inactive
C[C@H]1[C@H](C)CC[C@]2(C(=O)OCCCC[P+](c3ccccc3)(c3ccccc3)c3ccccc3)CC[C@]3(C)C(=CC[C@@H]4[C@@]5(C)CC[C@H](OC(=O)C(Cl)Cl)C(C)(C)[C@@H]5CC[C@]43C)[C@H]12	NCI-H460 lung	active
COc1cc(/C=C/C(=O)Nc2ccc3c(c2)/C(=C\c2cccn2C)C(=O)N3)cc(OC)c1OC	NCI-H460 lung	inactive

* * *

- System: NCI-H460 lung
- protocol.description: NCI tumour cell line growth inhibition, 48 h
*1 amine or outer side, *2 acyl side, *3 side chain or, on linkers, in order; H or OH if unused. Where a SMILES comes first, the peptide text is derived from it. [ ]: non-standard residue; d: D form. ξ: configuration not given here. Ile(3ξ) = CCC(C)[C@H](N)C(=O)O; X33 = C=CCC(O[*:1])C(=O)[*:2]; NMeV = CN[C@H](C(=O)O)C(C)C; NMeA = CN[C@@H](C)C(=O)O; βAla = NCCC(=O)O
measurement.kind: TGI

compound	test.result
c1cc(-c2ccc(-c3ccc(C4=NCCCN4)cc3)o2)ccc1C1=NCCCN1	> 100 µM
O=C(Nc1cccc(-n2ccc3c(NC(=O)c4ccccc4)nccc32)c1)Nc1ccc(Cl)c(C(F)(F)F)c1	18.3 µM
CCCC(=O)N(C(=O)CCC)C1=C(Cl)C(=O)c2ccccc2C1=O	29.3 µM
CCCCC(=O)OC[n+]1cccc(-c2c(COC(=O)NC(C)C)c(COC(=O)NC(C)C)c3n2CCC3)c1	> 100 µM
CO[C@@H]1C[C@H]2[C@@H]3CC[C@H]([C@H](C)CO)[C@@]3(C)CC[C@@H]2[C@@]2(C)CC[C@H]3C[C@]312	74.8 µM
CCOC(=O)c1ccc2c(c1)[n+](=O)c(C(=O)C1CCCS1)c(C(F)(F)F)n2[O-] (configuration not stated)	0.588 µM
C=CCC1OC(=O)CCNC(=O)[C@H](C)N(C)C(=O)[C@H](C(C)C)N(C)C(=O)[C@H](C(C)CC)NC(=O)[C@@H]2CCCN2C1=O (some centres not stated) (cyclo([Ile(3ξ)][NMeV][NMeA][βAla][X33]P))	> 100 µM
CN(/N=C(\C(=O)O)c1ccccc1)C1=NCCCCN1	> 100 µM
CCN(CC)CCn1ncc2c3c(=O)c4cccnc4n(CCN(CC)CC)c3ccc21	> 10 µM
Cc1nn(C(=O)c2ccccc2O)c2c1C(c1ccccc1O)SC(N)=N2 (configuration not stated)	> 10 µM
Cc1cc(-n2c(/C=C/c3ccc(Cl)cc3)nc3cc(Cl)ccc3c2=O)on1	22 µM
Cc1cccc2c1CC(C1OC(=O)c3ccccc31)C2=O (configuration not stated)	> 100 µM
O=C1CSC(c2ccccc2O)N1c1ccc(-c2ccc(-n3c(-c4ccccc4)nc4ccccc4c3=O)cc2)cc1 (configuration not stated)	> 100 µM
C=CCn1c(SCC(=O)Nc2ccc(C(=O)/C=C/c3cc(OC)c(OC)c(OC)c3)cc2)nnc1-c1ccc(Cl)cc1	13.5 µM
Cc1c(NC(=O)/C(=N/NC(=S)N=N)C2C(=O)CC(C)(C)CC2=O)c(O)c2ccccc2c1O	64.9 µM
N#Cc1c(-c2ccc([N+](=O)[O-])cc2)cc(-c2ccc(Nc3ccnc4cc(C(F)(F)F)ccc34)cc2)[nH]c1=O	> 100 µM
O=C(CCC(C(=O)OCc1ccccc1)C(=O)OCc1ccccc1)Nc1ccc(OCc2ccccc2)cc1	> 100 µM
COc1ccc(-c2c(-c3cc(OC)c(OC)c(OC)c3)nc3sc(C4CC4)nn23)cc1OC	> 100 µM
CCOC(=O)C(C(CC(=O)OC)NC(=O)OCc1ccccc1)C1(C)OCCO1 (configuration not stated)	> 100 µM
N#C/C(C(=O)Nc1ccccc1)=C(/N)N1CCCC1	> 100 µM
N#CC[C@@H](O)COc1ccccc1	> 100 µM
CCNCCCn1c2c(c3ccc(F)cc3c1=O)C(=O)c1cc(OC)cnc1-2	0.222 µM
COc1cc(Nc2nc3ccccc3n3cccc23)cc(OC)c1OC	> 100 µM
COc1cccc2c1C(=O)c1c(O)c3c(c(O)c1C2=O)CC(O)(/C(C)=N/NC(=O)CCCCC(=O)N/N=C(\C)C1(O)Cc2c(O)c4c(c(O)c2C(OC2CC(N)C(O)C(C)O2)C1)C(=O)c1c(OC)cccc1C4=O)CC3OC1CC(N)C(O)C(C)O1 (configuration not stated)	10.9 µM
O=C(Nc1ccc(-n2cc(-c3ccncc3)c(-c3ccc(O)c(Cl)c3)n2)cc1)c1cc(C(F)(F)F)cc(C(F)(F)F)c1	> 25 µM
O=C(CN=C(CN(c1ccccc1)c1ccccc1)Oc1c(Cl)cc(Cl)cc1Cl)N1c2ccccc2Sc2ccccc21	> 100 µM
COc1cc(/C=C/C(=O)Nc2ccc3c(c2)/C(=C\c2cccn2C)C(=O)N3)cc(OC)c1OC	76.8 µM
